# assayRemarks: HILIC, Waters ACQUITY UPLC BEH Amide, 100 × 2.1 mm, 1.7 µm; A: water + 0.125% formic acid + 10 mM ammonium formate; B: 5% water + 95% acetonitrile + 0.125% formic acid + 10 mM ammonium formate; gradient (min/%B) 0/100 2/100 7.7/70 9.5/40 10.25/30 12.75/100 17/100
# conditions: stereoisomer not certain
Label True when LC retention time < 6 min; otherwise False.

See these solved cases before continuing.
Nc1nc2c(ncn2C2OC(CO)C(O)C2O)c(=O)[nH]1 (stereo not given)
False
O=c1c(O)c(-c2ccc(O)cc2)oc2cc(O)cc(O)c12
True
c1ccc(-c2ccc(C(c3ccccc3)n3ccnc3)cc2)cc1 (stereo not given)
True
NC(=O)NC(N)=O
True
Cn1c(=N)ccn(C2OC(CO)C(O)C2O)c1=O (stereo not given)
False
NC(Cc1ccc(O)c(Cl)c1)C(=O)O (stereo not given)
False
CN1C2CCC1CC(OC(=O)C(CO)c1ccccc1)C2 (stereo not given)
True
COC(=O)C1C(O)CC2CCC1N2C (stereo not given)
True

Consider CC1C(c2ccccc2)OCCN1C (stereo not given) . Does its LC retention time lie strictly below 6 min?
True

Quick check: does NCCc1ccccn1 have LC retention time under 6 min?
True

====

# assayRemarks: HILIC, Waters ACQUITY UPLC BEH Amide, 100 × 2.1 mm, 1.7 µm; A: water + 0.125% formic acid + 10 mM ammonium formate; B: 5% water + 95% acetonitrile + 0.125% formic acid + 10 mM ammonium formate; gradient (min/%B) 0/100 2/100 7.7/70 9.5/40 10.25/30 12.75/100 17/100
# conditions: stereoisomer not certain
quantity: LC retention time
Quick note: unit goes after the number.

Sample answers from the record:
CC1=C2C3OC(=O)C(C)C3CCC2(C)C=CC1=O (stereo not drawn)
1.07 min
NCCc1ccc(O)cc1
5.58 min

Below: the item to evaluate.
Reported LC retention time for CC12CCC3C(CCC4CC(O)CCC43C)C1CCC2O (stereo not drawn) was 0.96 min

====

# assayRemarks: HILIC, Waters ACQUITY UPLC BEH Amide, 100 × 2.1 mm, 1.7 µm; A: water + 0.125% formic acid + 10 mM ammonium formate; B: 5% water + 95% acetonitrile + 0.125% formic acid + 10 mM ammonium formate; gradient (min/%B) 0/100 2/100 7.7/70 9.5/40 10.25/30 12.75/100 17/100
# conditions: stereoisomer not certain
Examples of compounds with documented LC retention time follow.
Number in min, nothing else.

Examples with answers:
CC1CNC(=O)NC1=O (configuration not stated) [5,6-Dihydro-5-methyluracil]
1.57
CCCN1CC(CSC)CC2c3cccc4[nH]cc(c34)CC21 (configuration not stated) [Pergolide]
2.41
CC1COc2c(C3(N)CC3)c(F)cc3c(=O)c(C(=O)O)cn1c23 (configuration not stated)
2.49
Nc1ccccc1C(=O)CC(N)C(=O)O (configuration not stated)
6.98
NC(=O)N1c2ccccc2CC(=O)c2ccccc21
1.13
NCCc1c[nH]c2ccc(O)cc12
1.44

Consider the record given below.
Sample NCCCCCN ; LC retention time observed: 8.99

====

The entries below are paired with their reported LC retention time.
# assayRemarks: HILIC, Waters ACQUITY UPLC BEH Amide, 100 × 2.1 mm, 1.7 µm; A: water + 0.125% formic acid + 10 mM ammonium formate; B: 5% water + 95% acetonitrile + 0.125% formic acid + 10 mM ammonium formate; gradient (min/%B) 0/100 2/100 7.7/70 9.5/40 10.25/30 12.75/100 17/100
# conditions: stereoisomer not certain
Express your answer in min, writing the number without its unit.

Below: 8 molecules and their reported LC retention time.
CN1C2CCC1CC(OC(=O)c1c[nH]c3ccccc13)C2 (configuration not stated)
3.81
O=C1Nc2ccc(Cl)cc2C(C#CC2CC2)(C(F)(F)F)O1 (configuration not stated)
0.98
CCc1ccc(CCOc2ccc(CC3SC(=O)NC3=O)cc2)nc1 (configuration not stated)
1.11
O=CC=Cc1ccccc1
9.18
Cn1c(=O)ccn(C2OC(CO)C(O)C2O)c1=O (configuration not stated)
1.12
CC(NC(C)(C)C)C(=O)c1cccc(Cl)c1 (configuration not stated)
2.22
CC(=O)n1ccnc1
1.37
CCOC(=O)c1ncn2c1CN(C)C(=O)c1cc(F)ccc1-2
1.08

Continue with the next molecule.
Entry CCOC(=O)OC(C)OC1=C(C(=O)Nc2ccccn2)N(C)S(=O)(=O)c2ccccc21 (configuration not stated) ; LC retention time = 0.95

====

# assayRemarks: HILIC, Waters ACQUITY UPLC BEH Amide, 100 × 2.1 mm, 1.7 µm; A: water + 0.125% formic acid + 10 mM ammonium formate; B: 5% water + 95% acetonitrile + 0.125% formic acid + 10 mM ammonium formate; gradient (min/%B) 0/100 2/100 7.7/70 9.5/40 10.25/30 12.75/100 17/100
# conditions: stereoisomer not certain
quantity: LC retention time (min)
The reply should contain only the number, in min.

NC(=O)CC(N)C(=O)O (stereo not given)
8.81
CCCCCC=CCC=CCCCCCCCC(=O)OC(CC(=O)[O-])C[N+](C)(C)C (stereo not given)
3.1
CCC1(O)CC2CN(CCc3c([nH]c4ccccc34)C(C(=O)OC)(c3cc4c(cc3OC)N(C=O)C3C(O)(C(=O)OC)C(OC(C)=O)C5(CC)C=CCN6CCC43C65)C2)C1 (stereo not given)
3.7
Nc1nc2nc[nH]c2c(=O)[nH]1
6.4
CC(=O)OC1(C(C)=O)CCC2C3C=C(C)C4=CC(=O)CCC4(C)C3CCC21C (stereo not given) [Megestrol Acetate]
0.96
NC(=O)Cc1c[nH]c2ccccc12 [Indole-3-acetamide]
1.36
O=[N+]([O-])c1cc[n+]([O-])c2ccccc12 [4-Nitroquinoline-N-oxide]
1.14
NC(=O)CCCCC1CCSS1 (stereo not given) [Lipoamide]
1.25

Reported LC retention time ( CC(C)(N)Cc1ccccc1 ) = 6.23

Value of measured LC retention time for the entry CN1CCC(=C2c3ccccc3CC(=O)c3sccc32)CC1 : 2.71

The measured LC retention time associated with O=C(OC1C(Oc2ccccc2COC(=O)C2(O)C=CCCC2=O)OC(CO)C(O)C1O)c1ccccc1 (stereo not given) reads 1.51

The measured LC retention time associated with CC(=O)NC(CC(C)C)C(=O)O (stereo not given) reads 2.29

The compound identified as CC(Cc1ccc(C(C)C(=O)O)cc1)C(=O)O (stereo not given) registered its LC retention time at 1.11

The value of LC retention time measured for the compound CC(Oc1c(Cl)cccc1Cl)C1=NCCN1 (stereo not given) turned out to be 2.65

====

# assayRemarks: HILIC, Waters ACQUITY UPLC BEH Amide, 100 × 2.1 mm, 1.7 µm; A: water + 0.125% formic acid + 10 mM ammonium formate; B: 5% water + 95% acetonitrile + 0.125% formic acid + 10 mM ammonium formate; gradient (min/%B) 0/100 2/100 7.7/70 9.5/40 10.25/30 12.75/100 17/100
# conditions: stereoisomer not certain
quantity: LC retention time (min)
Dear colleague, please return just the value in min, with no unit written.

NC(=O)NCCCC[C@H](N)C(=O)O [L-Homocitrulline]
8.73
CC(CCCCC(=O)Nc1ccc(C(F)(F)F)cc1)NCCc1cnc[nH]1 (centres undefined) [Histamine-trifluoromethyltoluide]
5.3
CNC(Cc1ccc(O)cc1)C(=O)O (centres undefined) [N-Methyltyrosine]
6.79

LC retention time for CC12CCC(=O)C=C1CCC1C2CCC2(C)C(O)CCC12 (centres undefined) [Testosterone] is 1.05

====

# assayRemarks: HILIC, Waters ACQUITY UPLC BEH Amide, 100 × 2.1 mm, 1.7 µm; A: water + 0.125% formic acid + 10 mM ammonium formate; B: 5% water + 95% acetonitrile + 0.125% formic acid + 10 mM ammonium formate; gradient (min/%B) 0/100 2/100 7.7/70 9.5/40 10.25/30 12.75/100 17/100
# conditions: stereoisomer not certain
Entries annotated with measured LC retention time
Give the value, in units of min, as a plain number.

A selection of reference data follows.
O=P(O)(O)Oc1ccccc1
7.05
NC(CC(=O)O)C(=O)NC(CCC(=O)O)C(=O)O (stereo unspecified)
9.47
CC(=O)NC(Cc1cnc[nH]1)C(=O)O (stereo unspecified)
8.07
CCOP(=O)(OCC)Oc1ccc([N+](=O)[O-])cc1
1.02

The recorded LC retention time for CN1C(=O)CN=C(c2ccccc2)c2cc([N+](=O)[O-])ccc21 is 0.98

get_value(item= NCCc1c[nH]c2ccccc12 , readout=LC retention time) returns 6.92

====

# assayRemarks: HILIC, Waters ACQUITY UPLC BEH Amide, 100 × 2.1 mm, 1.7 µm; A: water + 0.125% formic acid + 10 mM ammonium formate; B: 5% water + 95% acetonitrile + 0.125% formic acid + 10 mM ammonium formate; gradient (min/%B) 0/100 2/100 7.7/70 9.5/40 10.25/30 12.75/100 17/100
# conditions: stereoisomer not certain
Attribute: LC retention time
# value in min; strip the unit string

Recorded results for 2 molecules are shown here.
CC(C)CC(NC(=O)OCc1ccccc1)C(=O)O (stereo not drawn)
1.28
COc1ccc2[nH]cc(CC(=O)O)c2c1
1.32

// switching to the query molecule
Looking up c1ccncc1 , I see its LC retention time listed as 6.63
